experiment: CCTE_Mundy_HCI_Cortical_NOG_BPCount: CCTE's Neurite Outgrowth Assay in rat cortical cells for Branch Point Count, Mundy Lab (AID 2284237)
The source made the active and inactive calls. The calls were made as follows: active = hit-call score of the fitted dose curve at least 0.9, where 1 is the maximum; inactive = score below 0.9.
Outcome (select one): y (active), n (inactive)

| compound | class.name |
| --- | --- |
| F | n |

Problem: Fill in: this test's call for CC(CNC(=S)[S-])NC(=S)[S-].[Zn+2] (configuration not stated) is ___
Solution: y

Problem: Fill in: this test's call for `CC(C)O` is ___
Solution: n

Problem: Fill in: this test's call for CCCCCC(C)(CC)C(=O)NC (configuration not stated) is ___
Solution: n

Problem: Fill in: this test's call for `CC(C)c1nn(C(=O)NC(C)(C)C)c(=O)n1N` is ___
Solution: n

Problem: Fill in: this test's call for `[Li+]` is ___
Solution: n

Problem: Fill in: this test's call for CCN(CC)CCCC(C)Nc1nc(C)cc(Nc2ccc3nc(C)cc(N)c3c2)n1 (configuration not stated) is ___
Solution: n

Problem: Fill in: this test's call for `C[C@@H]1CC[C@@H](C(C)(C)O)[C@H](O)C1` is ___
Solution: n

Problem: Fill in: this test's call for CCCCCC=C(C)C(CC)CCO (configuration not stated) is ___
Solution: n

Problem: Fill in: this test's call for BrC1CC(Br)CC(Br)CC(Br)CC(Br)CC(Br)C1 (configuration not stated) is ___
Solution: y

Problem: Fill in: this test's call for `C[C@@H]1CCO[C@H]2Cn3cc(C(=O)NCc4ccc(F)cc4F)c(=O)c(O)c3C(=O)N12` is ___
Solution: n

Problem: Fill in: this test's call for `O=C1CC2(CCCC2)CC(=O)N1CCCCN1CCN(c2ncccn2)CC1` is ___
Solution: y

----------
assay: TOX21_p53_BLA_p5_viability: Viability Assessment in the Tox21 HCT-116 p53 Agonism Beta-lactamase Assay, Phase 5 (AID 2283600)
Results filed as inconclusive are left out. Active and inactive are the calls of the source. The calls were made as follows: active = hit-call score of the fitted dose curve at least 0.9, where 1 is the maximum; inconclusive = response in the unintended direction; inactive = score below 0.9.
observation.type: outcome

Past entries and their recorded results:
| compound | outcome |
| --- | --- |
| CC(C)N(C)C | inactive |
| CCCN(CC)C(CC)C(=O)Nc1c(C)cccc1C (stereo not drawn) | inactive |
| CCCn1c(=O)[nH]c(=O)c2[nH]cnc21 | inactive |
| NCCCC(O)(P(=O)(O)O)P(=O)(O)O | inactive |
| CCCCOC(=O)C(=O)OCCCC | inactive |
| Cc1cccc(C)c1NC(=O)CN1CCCCCC1 | inactive |
| CNS(=O)(=O)Cc1ccc2[nH]cc(CCN(C)C)c2c1 | inactive |
| CCCCCCOC(=O)c1cccnc1 | inactive |
| CC(C)(CCl)c1ccccc1 | inactive |
| CC(C)(O/N=C(\C(=O)N[C@@H]1C(=O)N2C(C(=O)[O-])=C(C[n+]3ccccc3)CS[C@H]12)c1csc(N)n1)C(=O)O | inactive |

Could you report outcome for every entry in the following list?
1. CCCCc1cc2ccccc2c(OCCN(C)C)n1
2. Cn1c(N)nc2nc[nH]c2c1=O
3. CC(C)(C)C(=O)NCCCC(=O)O

Solution:
1: inactive; 2: inactive; 3: inactive

----------
test: TOX21_p53_BLA_p4_viability: Viability Assessment in the Tox21 HCT-116 p53 Agonism Beta-lactamase Assay, Phase 4 (AID 2283597);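 also: hits lower the luminescence signal meaning cytotoxicity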
Inconclusive results are not listed. Activity calls are given as the source filed them. Rule for the calls: active = hit-call score of the fitted dose curve at least 0.9, where 1 is the maximum; inconclusive = response in the unintended direction; inactive = score below 0.9.
observation.type: outcome

| molecule | outcome |
| --- | --- |
| C[C@](N)(Cc1ccc(O)cc1)C(=O)O | inactive |
| COc1ccc2c(c1OC)C(=O)O[C@@H]2[C@H]1c2c(cc3c(c2OC)OCO3)CCN1C | inactive |
| NNc1nnc(NN)c2ccccc12 | inactive |
| CCC(=O)CC | inactive |
| O=[N+]([O-])c1cc(Cl)c(Cl)c(Cl)c1Cl | inactive |

Could you report outcome for every entry in the following list?
1. CN(C)C(=O)Oc1ccc[n+](C)c1
2. CNS(=O)(=O)Cc1ccc2[nH]cc(CCN(C)C)c2c1
3. CC(C)(C)NCCO
4. CS(=O)(=O)NC(=O)CCC/C=C\C[C@H]1C(=O)C[C@@H](O)[C@@H]1/C=C/[C@H](O)COc1ccccc1
5. O=C(CCN1CCN(CCO)CC1)N1c2ccccc2Sc2ccc(C(F)(F)F)cc21
6. CC(Cc1cccc(C(F)(F)F)c1)NCCOC(=O)c1ccccc1 (configuration not stated)

Solution:
1. inactive
2. inactive
3. inactive
4. inactive
5. inactive
6. inactive

Problem: Report outcome for `CCOC(=O)[C@H](CCc1ccccc1)N[C@@H](C)C(=O)N1Cc2cc(OC)c(OC)cc2C[C@H]1C(=O)O` please.
Solution: inactive
